- system: Estrogen receptor (Rattus norvegicus) (UniProt P06211+Q62986);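 note: Read-out is rat uterine weight, with subcutaneous dosing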
- condition.set: at 1 mg/kg
- Description: Anti-estrogen effects in rat (uterine weight) following 1 mg/kg s.c.
Assign labels as follows, please: Y for Antagonism below 80%; N for Antagonism equal to or exceeding 80%.

[ask] In plain terms, does `Oc1ccc([C@@H]2Sc3c(Cl)cc(O)cc3O[C@@H]2c2ccc(OCCN3CCCCC3)cc2)cc1` come in under 80% for Antagonism?
[reply] Y

***
[ask] In plain terms, does `Oc1cccc([C@H]2Sc3cc(O)ccc3O[C@H]2c2ccc(OCCN3CCCC3)cc2)c1` come in under 80% for Antagonism?
[reply] Y

[ask] In plain terms, does Oc1ccc([C@@H]2Sc3cc(O)ccc3O[C@@H]2c2ccc(OCCN3CCCCC3)cc2)cc1 (stereo in doubt; 11) come in under 80% for Antagonism?
[reply] Y

[ask] In plain terms, does `Oc1ccc([C@@H]2Sc3c(F)cc(O)cc3O[C@@H]2c2ccc(OCCN3CCCCC3)cc2)cc1` come in under 80% for Antagonism?
[reply] N

[ask] In plain terms, does `CN(C)CCOc1ccc([C@@H]2Oc3ccc(O)cc3S[C@@H]2c2cccc(O)c2)cc1` come in under 80% for Antagonism?
[reply] Y

[ask] In plain terms, does `Oc1cccc([C@H]2Sc3cc(O)ccc3O[C@H]2c2ccc(OCCN3CCOCC3)cc2)c1` come in under 80% for Antagonism?
[reply] Y

Sourced from ChEMBL document CHEMBL1146754
